biological target: cloned human 5-HT2C receptor (Homo sapiens); construct: purchased Euroscreen; host or cells: CHO-K1; assay: Human 5-HT2C receptor binding assay; conditions: [3H]mesulergine (1 nM) displacement, CHO-K1 cell membranes; read-out: 5-HT2C pKi (converted)
Sequence (P28335 33-458): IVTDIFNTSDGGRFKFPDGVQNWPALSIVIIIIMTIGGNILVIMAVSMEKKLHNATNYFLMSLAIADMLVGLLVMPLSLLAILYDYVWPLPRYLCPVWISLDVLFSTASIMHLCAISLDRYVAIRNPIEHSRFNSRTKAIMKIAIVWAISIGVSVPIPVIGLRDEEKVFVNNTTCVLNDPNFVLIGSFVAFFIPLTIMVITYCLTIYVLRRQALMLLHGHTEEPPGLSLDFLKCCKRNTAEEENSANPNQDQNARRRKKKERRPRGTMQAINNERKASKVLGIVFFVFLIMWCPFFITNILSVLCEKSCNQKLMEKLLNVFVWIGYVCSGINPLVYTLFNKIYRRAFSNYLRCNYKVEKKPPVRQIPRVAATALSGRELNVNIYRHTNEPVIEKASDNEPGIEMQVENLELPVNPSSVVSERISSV
Where a name gives a salt, the structure may show the parent alone.
MEASURED_PROPERTY: Ki

Provide Ki value for the following molecule: `Cc1cc(Oc2cccc3ccccc23)nc(N)n1`
> 10000 nM

Provide Ki value for the following molecule: CC(=O)Nc1nc(-c2cccc3sccc23)c[nH]1 [Compound 103L]
> 10000 nM

Provide Ki value for the following molecule: Cc1cccc(-c2ccc(Nc3nc(N)nn3C)cc2)c1 [Compound 410C, trifluoroacetic acid]
> 1000 nM

Provide Ki value for the following molecule: Cc1cc(Nc2cccc(CO)c2)nc(N)n1 [Compound 2X, hydrochloride]
> 1000 nM

Provide Ki value for the following molecule: COc1ccc2ccccc2c1-c1c[nH]c(N)n1 [Compound 104C]
> 316 nM

Provide Ki value for the following molecule: COc1ccc2ccccc2c1-c1nc(N)[nH]c1C [Compound 104J]
> 100 nM

Provide Ki value for the following molecule: COc1ccc(-c2c[nH]c(N)n2)c2ccccc12 [Compound 104B]
> 3160 nM

Provide Ki value for the following molecule: `Cc1cc(Nc2cc(Br)ccc2Br)nc(N)n1`
> 316 nM

Provide Ki value for the following molecule: COc1ccccc1-c1ccc(Nc2nc(N)n(C)n2)cc1 [Compound 411B]
> 1000 nM

Provide Ki value for the following molecule: COc1c(-c2cnc(N)[nH]2)ccc2ccccc12 [Compound 104E]
> 100 nM

Provide Ki value for the following molecule: CC(=O)Nc1nc(-c2cccc3ccccc23)c(C)[nH]1 [Compound 103I]
> 1000 nM

Provide Ki value for the following molecule: Cc1cc(Nc2cccc(Oc3ccccc3)c2)nc(N)n1 [Compound 2AD, hydrochloride]
> 1000 nM

Provide Ki value for the following molecule: Cc1cc(Nc2ccc(F)c(F)c2)nc(N)n1 [Compound 2M, hydrochloride]
> 1000 nM

Provide Ki value for the following molecule: Cc1cc(Nc2cccc(O)c2)nc(N)n1 [Compound 2Q, hydrochloride]
> 1000 nM

Provide Ki value for the following molecule: Cc1cc(Nc2ccc(F)cc2)nc(N)n1 [Compound 2I, hydrochloride]
> 1000 nM

Provide Ki value for the following molecule: COc1ccc2ccccc2c1-c1c[nH]c(NC(C)=O)n1 [Compound 103C]
> 316 nM

Provide Ki value for the following molecule: CCOc1ccc2ccccc2c1-c1c[nH]c(N)n1 [Compound 104A]
> 100 nM

Provide Ki value for the following molecule: COc1c(-c2cnc(NC(C)=O)[nH]2)ccc2ccccc12 [Compound 103E]
> 1000 nM

Provide Ki value for the following molecule: Cc1cccc(-c2cccc(Nc3cc(C)nc(N)n3)c2)c1 [Compound 10E, trifluoroacetic acid]
> 100 nM

Provide Ki value for the following molecule: CC(C)c1[nH]c(N)nc1-c1cccc2ccccc12 [Compound 104K]
> 316 nM

Provide Ki value for the following molecule: CC(=O)Nc1nc(-c2cccc3ccccc23)c[nH]1 [Compound 103N]
> 10000 nM

Provide Ki value for the following molecule: Cc1cc(C)cc(-c2cccc(-c3cnc(N)o3)c2)c1 [Compound 209K, trifluoroacetic acid]
> 1000 nM

Provide Ki value for the following molecule: Cc1cc(Nc2cc(Br)ccc2O)nc(N)n1 [Compound 2O, hydrochloride]
> 100 nM

Provide Ki value for the following molecule: Cc1cc(Nc2ccc(C)c(Br)c2)nc(N)n1 [Compound 2S, hydrochloride]
> 316 nM

Provide Ki value for the following molecule: Nc1nc(-c2ccc(-c3ccccc3)cc2)c[nH]1 [Compound 104P, 4-Biphenyl-4-yl-1H-imidazol-2-ylamine]
> 316 nM

Provide Ki value for the following molecule: CC(=O)Nc1ccc(Nc2cc(C)nc(N)n2)cc1 [Compound 2V, hydrochloride]
> 1000 nM

Provide Ki value for the following molecule: COc1ccc(-c2cccc(Nc3cc(C)nc(N)n3)c2)cc1OC [Compound 10B, trifluoroacetic acid]
> 10000 nM

Provide Ki value for the following molecule: Cc1cccc(-c2ccc(Nc3nc(N)n(C)n3)cc2)c1 [Compound 411C, trifluoroacetic acid]
> 1000 nM

Provide Ki value for the following molecule: Cc1cc(Nc2cccc(Br)c2C)nc(N)n1 [Compound 2T, hydrochloride]
> 1000 nM

Provide Ki value for the following molecule: CCOc1ccc2ccccc2c1-c1c[nH]c(NC(C)=O)n1 [Compound 103A]
> 1000 nM

Provide Ki value for the following molecule: Cc1c(-c2cnc(N)[nH]2)sc2ccccc12 [Compound 104O]
> 316 nM

Provide Ki value for the following molecule: `Cc1cccc(-c2cc(Nc3cc(C)nc(N)n3)ccc2C)c1`
> 1000 nM

Provide Ki value for the following molecule: CC(=O)Nc1ncc(-c2sc3ccccc3c2C)[nH]1 [Compound 103O]
> 10000 nM

Provide Ki value for the following molecule: Nc1ncc(-c2cccc(-c3cccc(O)c3)c2)o1 [Compound 209C, 3′-(2-Amino-oxazol-5-yl)-biphenyl-3-ol]
> 10000 nM

Provide Ki value for the following molecule: COc1ccccc1-c1cccc(Nc2cc(C)nc(N)n2)c1 [Compound 10F, trifluoroacetic acid]
> 100 nM

Provide Ki value for the following molecule: COc1ccccc1-c1cccc(-c2cnc(N)o2)c1 [Compound 209G, trifluoroacetic acid]
> 1000 nM

These data points were gathered from patent US20090018150A1.
